Data credit: patent US7235584B2

# tested.system: NMDA receptor
# procedure.summary: [3H]MK-801 displacement radioligand binding, rat forebrain membranes
# measurement.conditions: displacement of [3H]MK-801, rat forebrain membranes; read-out: NMDA BINDING IC50
measured.attribute: IC50

A selection of reference data follows.
{"compound": "CCCCCCC(C)(C)c1cc(O)c2c(c1)OC(C)(C)[C@H]1CC=C(CN3CCCC3)C[C@H]21", "measured.attribute": "IC50", "endpoint.result": "> 20 µM"}
{"compound": "CCCCCCC(C)(C)c1cc(O)c2c(c1)OC(C)(C)[C@H]1CC=C(CN3CCC(N4CCCC4)CC3)C[C@H]21", "measured.attribute": "IC50", "endpoint.result": "> 100 µM"}
{"compound": "CCCCCCC(C)(C)c1cc(O)c2c(c1)OC(C)(C)[C@H]1CC=C(CN3CCCCC3)C[C@H]21", "measured.attribute": "IC50", "endpoint.result": "> 20 µM"}

Give me IC50 for each of these compounds, listed below.
1. CCCCCCC(C)(C)c1cc(O)c2c(c1)OC(C)(C)[C@H]1CC=C(CN3CCC(C)CC3)CC21 (single isomer, unassigned; (+))
2. CCCCCCC(C)(C)c1cc(O)c2c(c1)OC(C)(C)[C@H]1CC=C(CN3CCNCC3)CC21 (some centres unmarked)
3. CCCCCCC(C)(C)c1cc(O)c2c(c1)OC(C)(C)[C@H]1CC=C(CN(Cc3ccccc3)c3ccccc3)C[C@H]21
4. CCCCCCC(C)(C)c1cc(O)c2c(c1)OC(C)(C)[C@H]1CC=C(CN3CCNC(C)C3)CC21 (some centres unmarked)

// result
["> 100 µM", "> 100 µM", "> 100 µM", "> 100 µM"]

// query I am curious: what IC50 value has been reported for CCCCCCC(C)(C)c1cc(O)c2c(c1)OC(C)(C)[C@H]1CC=C(CN3CCC(N4CCCCC4)CC3)CC21 (single isomer, unassigned; (+)) ?
// result > 100 µM

###

# Tested on: nitric oxide synthase (NOS)
# Construct: endogenous in cells
# Sequence (P35228 whole entry): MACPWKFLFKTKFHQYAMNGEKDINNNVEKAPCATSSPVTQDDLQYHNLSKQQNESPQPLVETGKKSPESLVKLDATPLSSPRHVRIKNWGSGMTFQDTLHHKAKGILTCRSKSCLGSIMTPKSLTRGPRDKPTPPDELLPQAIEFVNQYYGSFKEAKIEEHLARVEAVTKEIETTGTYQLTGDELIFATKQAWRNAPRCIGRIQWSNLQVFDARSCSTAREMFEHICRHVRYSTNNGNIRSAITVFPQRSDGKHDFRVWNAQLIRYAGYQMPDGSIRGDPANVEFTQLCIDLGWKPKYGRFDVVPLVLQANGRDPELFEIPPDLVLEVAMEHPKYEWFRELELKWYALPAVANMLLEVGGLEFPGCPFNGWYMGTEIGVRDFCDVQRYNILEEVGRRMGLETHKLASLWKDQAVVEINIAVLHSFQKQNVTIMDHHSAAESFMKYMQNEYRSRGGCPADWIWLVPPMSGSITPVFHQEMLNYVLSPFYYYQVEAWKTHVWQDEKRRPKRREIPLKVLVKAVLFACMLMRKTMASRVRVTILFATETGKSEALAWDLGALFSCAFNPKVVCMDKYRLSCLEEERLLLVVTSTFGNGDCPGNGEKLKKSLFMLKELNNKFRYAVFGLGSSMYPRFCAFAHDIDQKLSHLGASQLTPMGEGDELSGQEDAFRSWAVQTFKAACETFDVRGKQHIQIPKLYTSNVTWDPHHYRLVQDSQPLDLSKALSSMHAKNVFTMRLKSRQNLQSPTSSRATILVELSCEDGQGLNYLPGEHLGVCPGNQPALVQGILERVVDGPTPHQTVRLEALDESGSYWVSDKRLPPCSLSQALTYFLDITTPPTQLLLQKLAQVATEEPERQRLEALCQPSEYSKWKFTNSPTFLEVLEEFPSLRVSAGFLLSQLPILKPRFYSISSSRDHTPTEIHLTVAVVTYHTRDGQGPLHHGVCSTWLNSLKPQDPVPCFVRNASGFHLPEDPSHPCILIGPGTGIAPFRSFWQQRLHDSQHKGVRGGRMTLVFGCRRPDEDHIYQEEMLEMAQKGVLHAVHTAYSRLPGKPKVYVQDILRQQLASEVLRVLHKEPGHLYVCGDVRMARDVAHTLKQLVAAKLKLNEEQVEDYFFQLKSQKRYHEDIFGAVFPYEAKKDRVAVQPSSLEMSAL
# procedure.summary: Inhibition of nitric oxide synthase, fluorimetric nitrite assay in LPS-stimulated macrophage supernatants
# Type: cell-based
# measurement.conditions: macrophage cell cultures
Lab note: anything with inhibition at 10 µM at or over 30% counts as true (1); the rest go in false (0).

Examples with answers:
{"compound": "CCCCCCC(C)(C)c1cc(O)c2c(c1)OC(C)(C)[C@H]1CC=C(Cc3ccccc3)C[C@H]21 [211,119-000]", "discrete.label": "false (0)"}
{"compound": "CCCCCCC(C)(C)c1cc(O)c2c(c1)OC(C)(C)[C@H]1CC=C(CN3CCCCC3)C[C@H]21 [211,159-000]", "discrete.label": "false (0)"}
{"compound": "CCCCCCC(C)(C)c1cc(O)c2c(c1)OC(C)(C)[C@H]1CC=C(CN3CCN=C3SC)C[C@H]21 [211,204-000]", "discrete.label": "true (1)"}
{"compound": "CCCCCCC(C)(C)c1cc(O)c2c(c1)OC(C)(C)[C@H]1CC=C(CN3CCCC3)C[C@H]21 [211,128-000]", "discrete.label": "false (0)"}
{"compound": "CCCCCCC(C)(C)c1cc(O)c2c(c1)OC(C)(C)[C@H]1CC=C(Cn3cccn3)C[C@H]21 [211,220-000]", "discrete.label": "false (0)"}
{"compound": "CCCCCCC(C)(C)c1cc(O)c2c(c1)OC(C)(C)[C@H]1CC=C(CN3CCC(N4CCCC4)CC3)C[C@H]21 [211,253-000]", "discrete.label": "false (0)"}

// query Can CCCCCCC(C)(C)c1cc(O)c2c(c1)OC(C)(C)[C@H]1CC=C(CN3CC=CC3)C[C@H]21 [211,212-000] be said to have inhibition at 10 µM at or above 30%?
// result false (0)

// query # check: inhibition at 10 µM of CCCCCCC(C)(C)c1cc(O)c2c(c1)OC(C)(C)[C@H]1CC=C(C[S+](C)[O-])C[C@H]21 (some centres unmarked) [211,041-000] is greater than or equal to 30%
// result true (1)

###

# Tested on: nitric oxide synthase (NOS)
# Construct: endogenous in cells
# procedure.summary: Inhibition of nitric oxide synthase, fluorimetric nitrite assay in LPS-stimulated macrophage supernatants
# Type: cell-based
# measurement.conditions: macrophage cell cultures
For each of the compounds below, state its inhibition at 10 µM.
Numbers only, in %.

Here's what some known entries look like.
{"compound": "CCCCCCC(C)(C)c1cc(O)c2c(c1)OC(C)(C)[C@H]1CC=C(CC#N)C[C@H]21", "tested.system": "nitric oxide synthase (NOS)", "inhibition at 10 µM (%)": 19}
{"compound": "CCCCCCC(C)(C)c1cc(O)c2c(c1)OC(C)(C)[C@H]1CC=C(CN(Cc3ccccc3)c3ccccc3)C[C@H]21", "tested.system": "nitric oxide synthase (NOS)", "inhibition at 10 µM (%)": 7}
{"compound": "CCCCCCC(C)(C)c1cc(O)c2c(c1)OC(C)(C)C1CC=C(CSc3ncc[nH]3)CC21 (single isomer, unassigned; (+))", "tested.system": "nitric oxide synthase (NOS)", "inhibition at 10 µM (%)": 86}

// query Quick one: inhibition at 10 µM for CCCCCCC(C)(C)c1cc(O)c2c(c1)OC(C)(C)[C@H]1CC=C(COCC(O)CO)C[C@H]21 (stereo partly shown) ?
// result 0

###

# Test system: nitric oxide synthase (NOS)
# Construct: endogenous in cells
# procedure.summary: Inhibition of nitric oxide synthase, fluorimetric nitrite assay in LPS-stimulated macrophage supernatants
# Format: cell-based
# measurement.conditions: macrophage cell cultures
Decision: inhibition at 10 µM compared against 40%; not below it gives 1 (yes), below it gives 0 (no).

{"compound": "CCCCCCC(C)(C)c1cc(O)c2c(c1)OC(C)(C)[C@H]1CC=C(CN3CC=CCC3)C[C@H]21 [211,145-000]", "tested.system": "nitric oxide synthase (NOS)", "discrete.label": "1 (yes)"}
{"compound": "CCCCCCC(C)(C)c1cc(O)c2c(c1)OC(C)(C)C1CC=C(Cn3ccnc3)CC21.Cl (single isomer, unassigned; (+)) [211,095-000]", "tested.system": "nitric oxide synthase (NOS)", "discrete.label": "0 (no)"}
{"compound": "CCCCCCC(C)(C)c1cc(O)c2c(c1)OC(C)(C)[C@H]1CC=C(CN3CCC(C)CC3)CC21 (single isomer, unassigned; (+)) [211,251-000]", "tested.system": "nitric oxide synthase (NOS)", "discrete.label": "0 (no)"}

Turning now to a further record.
// query Is inhibition at 10 µM at least 40%? Consider CCCCCCC(C)(C)c1cc(O)c2c(c1)OC(C)(C)[C@H]1CC=C(CO)CC21 (stereo partly drawn) [211,007-000]
// result 0 (no)
